Target: acetylcholinesterase (Homo sapiens)
Assay: Acetylcholinesterase Inhibition Assay (photometric method)
Assay type: biochemical
pIC50: −log10 of the molar value. Counter-ions that a name gives are not always drawn.

| MOLECULE | pIC50 |
| --- | --- |
| CNC(=O)Oc1ccc2c3c1O[C@H]1C[C@@H](OC(=O)C(C)C)C=C[C@@]31CCN(C)C2 [Hydrochloride] | 7.33 |

* * *

Biological target: acetylcholinesterase (Homo sapiens, UniProt P22303)
Sequence (P22303 32-614): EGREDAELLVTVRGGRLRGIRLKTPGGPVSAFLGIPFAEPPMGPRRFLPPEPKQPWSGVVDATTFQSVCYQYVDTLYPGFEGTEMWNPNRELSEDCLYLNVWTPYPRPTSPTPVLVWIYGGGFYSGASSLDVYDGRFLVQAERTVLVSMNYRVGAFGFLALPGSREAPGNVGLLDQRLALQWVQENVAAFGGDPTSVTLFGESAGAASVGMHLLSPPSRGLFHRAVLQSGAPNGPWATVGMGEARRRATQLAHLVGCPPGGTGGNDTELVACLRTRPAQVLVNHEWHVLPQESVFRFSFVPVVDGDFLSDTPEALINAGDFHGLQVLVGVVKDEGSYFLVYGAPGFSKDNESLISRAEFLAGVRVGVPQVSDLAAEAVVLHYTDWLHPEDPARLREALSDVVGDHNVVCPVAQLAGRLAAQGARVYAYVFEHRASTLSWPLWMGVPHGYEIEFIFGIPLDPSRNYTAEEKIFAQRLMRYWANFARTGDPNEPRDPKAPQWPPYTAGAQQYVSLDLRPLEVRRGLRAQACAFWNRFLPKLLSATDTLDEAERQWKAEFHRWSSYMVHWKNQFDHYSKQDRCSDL
Assay: Acetylcholinesterase Inhibition Assay (photometric method)
Type: biochemical
Conditions: photometric method; read-out: IC50 CHE I (acetylcholinesterase inhibition)
MEASURE_NAME: IC50 (nM)

| STRUCTURE_SMILES_STRING | MEASURE_NAME | REPORTED_RESULT |
| --- | --- | --- |
| CNC(=O)Oc1ccc2c3c1O[C@H]1C[C@@H](O)C=C[C@@]31CCN(C)C2 | IC50 | 2 |
